Target: human recombinant mGluR5 (Homo sapiens)
Construct: expressed in transfected cells; hygromycin and geneticin selection
Sequence (P41594 21-1212): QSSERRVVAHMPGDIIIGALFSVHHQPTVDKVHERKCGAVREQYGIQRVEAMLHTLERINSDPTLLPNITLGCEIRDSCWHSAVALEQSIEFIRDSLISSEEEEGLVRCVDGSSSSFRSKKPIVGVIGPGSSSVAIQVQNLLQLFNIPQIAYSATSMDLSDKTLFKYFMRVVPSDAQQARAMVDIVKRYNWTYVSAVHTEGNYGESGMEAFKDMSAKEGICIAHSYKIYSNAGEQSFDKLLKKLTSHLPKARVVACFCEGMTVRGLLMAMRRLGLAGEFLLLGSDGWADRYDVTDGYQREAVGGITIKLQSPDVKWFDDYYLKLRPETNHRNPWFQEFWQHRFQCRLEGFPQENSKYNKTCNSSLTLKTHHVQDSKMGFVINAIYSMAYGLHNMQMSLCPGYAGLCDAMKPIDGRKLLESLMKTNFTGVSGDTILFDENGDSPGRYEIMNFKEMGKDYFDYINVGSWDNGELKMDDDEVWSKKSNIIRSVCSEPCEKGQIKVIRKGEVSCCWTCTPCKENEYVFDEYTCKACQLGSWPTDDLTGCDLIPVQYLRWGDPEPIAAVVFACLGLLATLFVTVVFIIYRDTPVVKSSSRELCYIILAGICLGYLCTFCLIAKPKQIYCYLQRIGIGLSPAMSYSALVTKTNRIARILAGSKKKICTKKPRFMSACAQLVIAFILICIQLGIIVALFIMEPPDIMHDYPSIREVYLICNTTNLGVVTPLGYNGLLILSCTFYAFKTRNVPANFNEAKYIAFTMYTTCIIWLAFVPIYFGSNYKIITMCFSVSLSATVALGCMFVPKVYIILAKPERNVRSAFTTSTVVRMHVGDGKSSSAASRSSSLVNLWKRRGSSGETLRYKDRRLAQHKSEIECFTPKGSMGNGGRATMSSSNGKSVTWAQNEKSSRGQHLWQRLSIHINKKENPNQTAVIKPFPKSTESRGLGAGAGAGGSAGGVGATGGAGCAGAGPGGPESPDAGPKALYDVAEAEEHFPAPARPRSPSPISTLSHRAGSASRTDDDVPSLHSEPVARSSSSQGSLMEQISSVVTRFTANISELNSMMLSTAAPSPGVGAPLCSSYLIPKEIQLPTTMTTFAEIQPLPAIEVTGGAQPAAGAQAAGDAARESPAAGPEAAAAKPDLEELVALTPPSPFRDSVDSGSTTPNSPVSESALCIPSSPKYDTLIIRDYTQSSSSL
Experiment: positive modulation of mGluR5, calcium based FLIPR assay
Conditions: HEK 293 cell line expressing human recombinant mGluR5; Ca2+ peak height after glutamate at approximately 5% basal stimulation; nonlinear regression
pEC50: −log10 of the molar value.
// label = YES if pEC50 is not less than 7, otherwise NO

- molecule: "CC1(C)CN(C(=O)c2cccc(-c3ccncc3)n2)CCN1C(=O)c1ncn(-c2ccccc2)n1 [Example 111]"
  system-tested: "human recombinant mGluR5 (Homo sapiens)"
  category-label: "NO"
- molecule: "COc1cccc(C(=O)N2CCN(C(=O)c3ncn(-c4cccc(Cl)c4)n3)CC2(C)C)n1 [Example 257]"
  system-tested: "human recombinant mGluR5 (Homo sapiens)"
  category-label: "NO"
- molecule: "CC(C)c1cccc(C(=O)N2CCN(C(=O)c3ncn(-c4ccccc4)n3)C(C)(C)C2)c1 [Example 96]"
  system-tested: "human recombinant mGluR5 (Homo sapiens)"
  category-label: "YES"
- molecule: "Cc1ccc2oc(C(=O)N3CCN(C(=O)c4ncn(-c5cccc(Cl)c5)n4)C(C)(C)C3)c(C)c2c1 [Example 50]"
  system-tested: "human recombinant mGluR5 (Homo sapiens)"
  category-label: "NO"

* * *

Molecular target: human recombinant mGluR5 (Homo sapiens)
Construct: hygromycin and geneticin selection
Test: positive modulation of mGluR5, calcium based FLIPR assay
Conditions: HEK 293 cell line expressing human recombinant mGluR5; Ca2+ peak height after glutamate at approximately 5% basal stimulation; nonlinear regression
measurement-name: EC50

- smiles-str: "CC(C)c1cccc(C(=O)N2CCN(C(=O)c3nnn(-c4ccccc4)n3)C(C)(C)C2)c1"
  recorded-result: "15 nM"
- smiles-str: "Cc1cccc(-n2cnc(C(=O)N3CCN(C(=O)c4cccc(C5CC5)n4)CC3(C)C)n2)c1"
  recorded-result: "19 nM"
- smiles-str: "CC(C)Oc1cccc(C(=O)N2CCN(C(=O)c3ncn(-c4ccccc4)n3)C(C)(C)C2)c1"
  recorded-result: "91 nM"
- smiles-str: "Cc1cccc(-n2nnc(C(=O)N3CCN(C(=O)c4cccc(Cl)c4)CC3(C)C)n2)c1"
  recorded-result: "36 nM"
- smiles-str: "CC1(C)CN(C(=O)c2cccc(C(F)(F)F)n2)CCN1C(=O)c1ncn(-c2cccc(Cl)c2)n1"
  recorded-result: "22 nM"
- smiles-str: "CC1(C)CN(C(=O)c2cccc(Br)c2)CCN1C(=O)c1ncn(-c2cccc(Cl)c2)n1"
  recorded-result: "30 nM"
- smiles-str: "CC1(C)CN(C(=O)c2cccc(-c3ccc(C#N)cc3)c2)CCN1C(=O)c1ncn(-c2cccc(Cl)c2)n1"
  recorded-result: "146 nM"
- smiles-str: "COc1ccc2c(OC)nc(C(=O)N3CCN(C(=O)c4ncn(-c5cccc(Cl)c5)n4)C(C)(C)C3)cc2c1"
  recorded-result: "160 nM"
- smiles-str: "CCCOc1nc(C(=O)N2CCN(C(=O)c3ncn(-c4cccc(Cl)c4)n3)C(C)(C)C2)cc2ccccc12"
  recorded-result: "105 nM"
- smiles-str: "Cc1c(C(=O)N2CCN(C(=O)c3ncn(-c4cccc(Cl)c4)n3)C[C@H]2C)oc2ccc(F)cc12"
  recorded-result: "371 nM"
- smiles-str: "CCOc1nc(C(=O)N2CCN(C(=O)c3ncn(-c4ccccc4)n3)C(C)(C)C2)cc2ccccc12"
  recorded-result: "43 nM"
